target: L-lactate dehydrogenase A chain (Homo sapiens, UniProt P00338); test: Binding affinity to human recombinant carboxy-terminal his-tagged LDHA (1 to 331) expressed in Escherichia coli by surface plasmon resonance analysis in presence of NADH
pKd: −log10 of the molar value.
RESULT_TYPE: pKd

C[C@@H](Nc1nc(-c2cccc(C(=O)O)c2)cnc1N)c1ccc(Cl)cc1 = 5.30
C[C@@H](Nc1nc(-c2csc(C(=O)O)c2)cnc1N)c1ccccc1 = 4.48
CC(C)c1ccc(C(=O)O)cc1-c1cnc(N)c(N[C@H](C)c2ccccc2)n1 = 5.30

[A] Cc1cc(C(=O)O)cc(-c2cnc(N)c(N[C@H](C)c3ccccc3)n2)c1
[B] C[C@@H](Nc1nc(-c2ccnc(C(=O)O)c2)cnc1N)c1ccccc1
Query: Of A and B , which carries the smaller reported pKd figure? Record your answer as the label of the chosen record.
Reply: B

###

target: UniProt P00338; assay: Binding affinity to human recombinant carboxy-terminal his-tagged LDHA (1 to 331) expressed in Escherichia coli by surface plasmon resonance analysis in absence of NADH
RESULT_TYPE: pKd
In plain terms, pKd is the concentration in mol/L turned into minus its base-10 logarithm.

Record summary for `C[C@@H](Nc1nc(-c2cccc(C(=O)O)c2)cnc1N)c1ccccc1` : reported pKd = 3.07

###

molecular target: L-lactate dehydrogenase A chain (Homo sapiens, UniProt P00338); assay: Inhibition of human recombinant carboxy-terminal his-tagged LDHA (1 to 331) expressed in Escherichia coli using pyruvate as substrate assessed as disappearance of NADH after 10 mins by fluorescence assay
RESULT_TYPE: IC50 (µM)

C[C@@H](Nc1cc(-c2cccc(C(=O)O)c2)cnc1N)c1ccccc1 = 18
CNc1ncc(-c2cccc(C(=O)O)c2)nc1N[C@H](C)c1ccccc1 = 73
Cc1ccc(-c2cnc(N)c(N[C@H](C)c3ccccc3)n2)cc1C(=O)O = 15

[a] C[C@@H](Nc1nc(-c2ccnc(C(=O)O)c2)cnc1N)c1ccccc1
[b] Cc1nc(N)c(N[C@H](C)c2ccccc2)nc1-c1cccc(C(=O)O)c1
[c] Cc1ccc(C(=O)O)cc1-c1cnc(N)c(N[C@H](C)c2ccccc2)n1
Query: Could you please sort these 3 entries by IC50 from high to low? Output spec: labels arranged per the requested ranking.
Reply: b, a, c
(b: 91 µM, a: 24 µM, c: 2 µM)

###

biological target: L-lactate dehydrogenase A chain (Homo sapiens); test: Inhibition of human recombinant carboxy-terminal his-tagged LDHA (1 to 331) expressed in Escherichia coli using pyruvate as substrate assessed as disappearance of NADH after 10 mins by fluorescence assay
pIC50: −log10 of the molar value.
RESULT_TYPE: pIC50

C[C@@H](Nc1nc(-c2ccc(C(=O)O)c(O)c2)cnc1N)c1ccccc1 = 5.00
C[C@@H](Nc1nc(-c2cccc(C(=O)O)c2)cnc1N)c1ccccc1 = 5.40
Cc1cc(C(=O)O)cc(-c2cnc(N)c(N[C@H](C)c3ccccc3)n2)c1 = 5.40
C[C@@H](Nc1nc(-c2ccc(C(=O)O)cc2)cnc1N)c1ccccc1 = 4.85

[a] C[C@@H](Nc1nc(-c2cccc(C(=O)O)c2)cnc1N)c1ccc(Cl)cc1
[b] C[C@@H](Nc1nc(-n2cc(C(=O)O)cn2)cnc1N)c1ccccc1
Query: Smaller pIC50 value? Options are a and b // respond with label for picked entry
Reply: b
